# Procedure Summary: Inhibition of rat recombinant PFT expressed in insect Sf9 cells by scintillation proximity assay
Lab note: cut-off is 1000 nM. Strictly less in IC50 is criterion met. Exactly 1000 nM or more is criterion not met.

Here are 4 compounds together with their reported answers.
COC(c1ccc(Cl)cc1)(c1ccc2c(c1)c(-c1cccc(Cl)c1C)cc(=O)n2C)c1cncn1C (stereo not given)
criterion not met
CCCOC(c1ccc(Cl)cc1)(c1ccc2c(c1)c(-c1cccc(Cl)c1C)cc(=O)n2C)c1cncn1C (stereo not given)
criterion not met
COC(c1ccc(Cl)cc1)(c1ccc2c(c1)c(-c1ccccc1F)cc(=O)n2C)c1cncn1C (stereo not given)
criterion not met
COC(c1ccc(Cl)cc1)(c1ccc2c(c1)c(-c1c(F)cccc1F)cc(=O)n2C)c1cncn1C (stereo not given)
criterion not met

--- query ---
Asked: Lab log: compare recorded IC50 with 1000 nM; is it strictly lower for COC(c1ccc(Cl)cc1)(c1ccc2c(c1)c(-c1ccccc1)cc(=O)n2C)c1cncn1C (stereo not given) ?
Given back: criterion met

###

# Procedure Summary: Inhibition of rat recombinant PFT expressed in insect Sf9 cells by scintillation proximity assay
Would you kindly list log10(IC50) for each of these compounds?
On a log10 scale: recorded IC50, unit nM.

Before answering, review these 5 worked examples.
COC(c1ccc2ccccc2c1)(c1ccc2c(c1)c(-c1cccc(Cl)c1)cc(=O)n2C)c1cncn1C (configuration not stated)
3.36
CCn1cncc1C(O)(c1ccc(Cl)cc1)c1ccc2c(c1)c(-c1cccc(Cl)c1)cc(=O)n2C (configuration not stated)
1.48
Cc1c(Cl)cccc1-c1cc(=O)n(C)c2ccc(C(O)(c3ccc(Cl)cc3)c3cncn3C)cc12 (configuration not stated)
2.90
Cn1cncc1[C@@](N)(c1ccc(Cl)cc1)c1ccc2c(c1)c(-c1cccc(Cl)c1)cc(=O)n2C
-0.15
CNC(c1ccc(Cl)cc1)(c1ccc2c(c1)c(-c1cccc(Cl)c1C)cc(=O)n2C)c1cncn1C (configuration not stated)
2.98

For each entry beneath this line, provide reported log10(IC50).
1. Cn1cncc1C(O)(c1ccc(Cl)cc1)c1ccc2c(c1)c(-c1cccc(Cl)c1)cc(=O)n2C (configuration not stated)
2. COC(c1ccc(Cl)cc1)(c1ccc2c(c1)c(-c1ccc(C)cc1)cc(=O)n2C)c1cncn1C (configuration not stated)
3. COC(c1ccc(Cl)cc1)(c1ccc2c(c1)c(-c1cccc(F)c1)cc(=O)n2C)c1cncn1C (configuration not stated)
4. CCn1cncc1C(NC)(c1ccc(Cl)cc1)c1ccc2c(c1)c(-c1cccc(Cl)c1)cc(=O)n2C (configuration not stated)
5. COC(c1ccc(Cl)cc1)(c1ccc2c(c1)c(-c1cccc(C)c1)cc(=O)n2C)c1cncn1C (configuration not stated)
6. COC(c1ccc(Cl)cc1)(c1ccc2c(c1)c(-c1cc(C)cc(C)c1)cc(=O)n2C)c1cncn1C (configuration not stated)
7. COC(c1ccc(Cl)cc1)(c1ccc2c(c1)c(-c1ccccc1C)cc(=O)n2C)c1cncn1C (configuration not stated)
8. COC(c1ccc(Cl)cc1)(c1ccc2c(c1)c(-c1cccc(C(F)(F)F)c1)cc(=O)n2C)c1cncn1C (configuration not stated)

Given back:
0.90
2.61
2.54
1.82
1.93
2.67
3.51
3.12

###

So I've got a bunch of compounds here, and I need their pIC50 values.
# System Tested: UniProt P08684
# Sequence (P08684 whole entry): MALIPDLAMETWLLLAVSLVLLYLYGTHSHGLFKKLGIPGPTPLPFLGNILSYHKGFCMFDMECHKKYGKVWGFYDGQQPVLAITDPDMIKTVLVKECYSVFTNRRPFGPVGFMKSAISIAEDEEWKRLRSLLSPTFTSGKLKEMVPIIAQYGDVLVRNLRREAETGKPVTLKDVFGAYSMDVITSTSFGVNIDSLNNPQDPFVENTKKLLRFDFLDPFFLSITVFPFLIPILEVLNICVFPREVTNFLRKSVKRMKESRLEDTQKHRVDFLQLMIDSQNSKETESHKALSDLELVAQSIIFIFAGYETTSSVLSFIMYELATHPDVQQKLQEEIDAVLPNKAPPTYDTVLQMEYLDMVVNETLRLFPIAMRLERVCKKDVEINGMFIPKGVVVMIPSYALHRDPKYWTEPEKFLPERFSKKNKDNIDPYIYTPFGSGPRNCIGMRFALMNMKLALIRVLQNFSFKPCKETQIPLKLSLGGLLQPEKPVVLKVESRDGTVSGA
# Procedure Summary: Inhibition of human recombinant CYP3A4
Give bare numbers, as −log10 of the molar value.

COC(c1ccc(Cl)cc1)(c1ccc2c(c1)c(-c1ccc(Cl)cc1)cc(=O)n2C)c1cncn1C (stereo not drawn)
6.03

Record pIC50 for all entries; do not skip any.
1. COC(c1ccc(Cl)cc1)(c1ccc2c(c1)c(-c1ccccc1)cc(=O)n2C)c1cncn1C (stereo not drawn)
2. COC(c1ccc(Cl)cc1)(c1ccc2c(c1)c(-c1c(F)cccc1F)cc(=O)n2C)c1cncn1C (stereo not drawn)

Given back:
1. 5.63
2. 6.56

###

# Procedure Summary: Inhibition of rat recombinant PFT expressed in insect Sf9 cells by scintillation proximity assay
Recorded Endpoint: pIC50
Numbers only, as −log10 of the molar value.

Below, 4 compounds whose answers are already recorded.
COC(c1ccc(Cl)cc1)(c1ccc2c(c1)c(-c1ccc(F)cc1)cc(=O)n2C)c1cncn1C (stereo not given)
6.00
CCn1cncc1C(OC)(c1ccc(Cl)cc1)c1ccc2c(c1)c(-c1cccc(Cl)c1)cc(=O)n2C (stereo not given)
6.01
CCn1cncc1C(N)(c1ccc(Cl)cc1)c1ccc2c(c1)c(-c1cccc(Cl)c1)cc(=O)n2C (stereo not given)
7.55
COC(c1ccc(Cl)cc1)(c1ccc2c(c1)c(-c1ccc(Cl)cc1)cc(=O)n2C)c1cncn1C (stereo not given)
5.22

Consider now this further compound.
Asked: State the recorded pIC50 for this entry: COC(c1ccc(Cl)cc1)(c1ccc2c(c1)c(-c1cccc(Cl)c1)cc(=O)n2C)c1cncn1C (stereo not given)
Given back: 7.19

###

Kindly state pIC50 for each of the entries shown.
# Procedure Summary: Inhibition of rat recombinant PFT expressed in insect Sf9 cells by scintillation proximity assay
pIC50: −log10 of the molar value.

Batch request: pIC50 per item, same order as input.
1. COC(c1ccc(Cl)cc1)(c1ccc2c(c1)c(-c1ccccc1C(F)(F)F)cc(=O)n2C)c1cncn1C (centres undefined)
2. COC(c1ccc(Cl)cc1)(c1ccc2c(c1)c(-c1c(C)cccc1C)cc(=O)n2C)c1cncn1C (centres undefined)
3. CCOC(c1ccc(Cl)cc1)(c1ccc2c(c1)c(-c1cccc(Cl)c1C)cc(=O)n2C)c1cncn1C (centres undefined)
4. COC(c1ccc(Cl)cc1)(c1ccc2c(c1)c(-c1c(Cl)cccc1Cl)cc(=O)n2C)c1cncn1C (centres undefined)

Given back:
["< 5.30", "< 5.00", "< 5.00", "< 5.00"]

Source of measurements: ChEMBL document CHEMBL1157803
